Target: IL-17RA/IL17RC dimerization induced by IL-17A (Homo sapiens, UniProt Q16552)
Sequence (Q16552 24-155): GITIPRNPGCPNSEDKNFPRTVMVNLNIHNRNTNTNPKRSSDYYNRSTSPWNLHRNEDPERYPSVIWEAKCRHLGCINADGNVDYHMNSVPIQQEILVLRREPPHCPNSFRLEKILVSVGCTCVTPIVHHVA
Assay: IL-17RA/IL17RC dimerization assay in response to IL-17A (PathHunter Cytokine Receptor Assay)
Format: cell-based
Settings: IL-17A at EC80; read-out: IC50 in IL-17RA/IL7RC dimerization assay
Description: The peptides of Table 7 were tested for their ability to inhibit the binding of IL-17A to its receptor and the subsequent interaction of IL-17RA and IL17RC. […] In the PathHunter® Cytokine Receptor Assay, one cytokine receptor chain is tagged with a small peptide epitope ProLink (PK) and the other chain is tagged with Enzyme Acceptor (EA). […] This interaction generates an active unit of b-galactosidase, which is detected using a chemiluminescent substrate. […]
Residues, ends and D or L forms follow the SMILES beside them.
MEASURED ENDPOINT: IC50

// below: answered molecules
{"columns": ["MOLECULE", "IC50"],
 "data": [
  ["CC[C@H](C)[C@H](NC(C)=O)C(=O)N[C@@H](Cc1c[nH]cn1)C(=O)N[C@H](C(=O)N[C@H](C(=O)N[C@H](C(=O)N1CCC[C@H]1C(=O)N[C@@H](C)C(=O)N[C@@H](CC(=O)O)C(=O)N[C@@H](CC(C)C)C(=O)N[C@@H](Cc1c[nH]c2ccccc12)C(=O)N[C@@H](CC(=O)O)C(=O)N[C@@H](Cc1c[nH]c2ccccc12)C(=O)N[C@H](C(=O)N[C@@H](CC(N)=O)C(=O)N[C@@H](CC(=O)O)C(N)=O)[C@@H](C)CC)[C@@H](C)CC)[C@@H](C)O)C(C)C [SEQ ID NO: 223] (Ac-IHVTIPADLWDWIND-NH2)", "< 10 µM"],
  ["CC[C@H](C)[C@H](NC(C)=O)C(=O)N[C@@H](Cc1c[nH]cn1)C(=O)N[C@H](C(=O)N[C@H](C(=O)N[C@@H](Cc1ccccc1)C(=O)N1CCC[C@H]1C(=O)N[C@@H](C)C(=O)N[C@@H](CC(=O)O)C(=O)N[C@@H](CC(C)C)C(=O)N[C@@H](Cc1c[nH]c2ccccc12)C(=O)N[C@@H](CC(=O)O)C(=O)N[C@@H](Cc1c[nH]c2ccccc12)C(=O)N[C@H](C(=O)N[C@@H](CC(N)=O)C(=O)N[C@@H](CCCCN)C(N)=O)[C@@H](C)CC)[C@@H](C)O)C(C)C [SEQ ID NO: 184] (Ac-IHVTFPADLWDWINK-NH2)", "< 10 µM"],
  ["CC(=O)N[C@H](C(=O)N[C@@H](Cc1c[nH]cn1)C(=O)N[C@@H](Cc1ccccc1)C(=O)N[C@@H](CCC(N)=O)C(=O)N[C@@H](Cc1ccccc1)C(=O)N1CCC[C@H]1C(=O)N[C@@H](CCC(N)=O)C(=O)N[C@@H](CC(=O)O)C(=O)N[C@@H](Cc1c[nH]c2ccccc12)C(=O)N[C@@H](Cc1c[nH]c2ccccc12)C(=O)N[C@@H](CCC(=O)O)C(=O)N[C@@H](Cc1c[nH]c2ccccc12)C(=O)N[C@H](C(=O)N[C@@H](CCCNC(=N)N)C(=O)N[C@@H](CCCNC(=N)N)C(N)=O)C(C)C)C(C)C [SEQ ID NO: 136] (Ac-VHFQFPQDWWEWVRR-NH2)", "< 0.5 µM"]
]}

We now examine a further molecule.
Reported IC50 ( CC[C@H](C)[C@H](NC(C)=O)C(=O)N[C@@H](Cc1c[nH]cn1)C(=O)N[C@H](C(=O)N[C@@H](CO)C(=O)N[C@H](C(=O)N1CCC[C@H]1C(=O)N[C@@H](C)C(=O)N[C@@H](CC(=O)O)C(=O)N[C@@H](CC(C)C)C(=O)N[C@@H](Cc1c[nH]c2ccccc12)C(=O)N[C@@H](CC(=O)O)C(=O)N[C@@H](Cc1c[nH]c2ccccc12)C(=O)N[C@H](C(=O)N[C@@H](CC(N)=O)C(=O)N[C@@H](CCCCN)C(N)=O)[C@@H](C)CC)[C@@H](C)CC)C(C)C [SEQ ID NO: 175] (Ac-IHVSIPADLWDWINK-NH2) ) = < 10 µM

###

Test: Isoelectric point, log D and log P (SiriusT3)
Assay type: physicochemical
Conditions: 25±1° C., 0.15 M KCl
Residues, ends and D or L forms follow the SMILES beside them.
Below, each entry is listed alongside its reported IP (isoelectric point).
Form: value (number only, do not type unit).

{"columns": ["COMPOUND", "IP (isoelectric point)"],
 "data": [
  ["CC[C@H](C)[C@H](NC(=O)[C@@H](NC(=O)[C@H](Cc1ccccc1)NC(=O)[C@H](Cc1c[nH]cn1)NC(=O)[C@@H](NC(C)=O)C(C)C)[C@@H](C)O)C(=O)N1CCC[C@H]1C(=O)N[C@@H](C)C(=O)N[C@@H](CC(=O)O)C(=O)N[C@@H](CC(C)C)C(=O)N[C@@H](Cc1c[nH]c2ccccc12)C(=O)N[C@@H](CCC(=O)O)C(=O)N[C@@H](Cc1c[nH]c2ccccc12)C(=O)N[C@H](C(=O)N[C@@H](CCCNC(=N)N)C(=O)N[C@@H](CCCNC(=N)N)C(N)=O)C(C)C [SEQ ID NO: 112] (Ac-VHFTIPADLWEWVRR-NH2)", 8.99],
  ["CC[C@H](C)[C@H](NC(=O)[C@H](Cc1c[nH]c2ccccc12)NC(=O)[C@H](CC(=O)O)NC(=O)[C@H](Cc1c[nH]c2ccccc12)NC(=O)[C@H](CC(C)C)NC(=O)[C@H](CC(=O)O)NC(=O)[C@H](C)NC(=O)[C@@H]1CCCN1C(=O)[C@@H](NC(=O)[C@@H](NC(=O)[C@@H](NC(=O)[C@H](Cc1c[nH]cn1)NC(=O)[C@@H](NC(C)=O)C(C)C)C(C)C)[C@@H](C)O)[C@@H](C)CC)C(=O)N[C@@H](CC(N)=O)C(=O)N[C@@H](CCCCN)C(N)=O [SEQ ID NO: 2] (Ac-VHVTIPADLWDWINK-NH2)", 5.14],
  ["CC[C@H](C)[C@H](NC(=O)[C@@H](NC(=O)[C@@H](NC(=O)[C@H](Cc1c[nH]cn1)NC(=O)[C@@H](NC(C)=O)C(C)C)C(C)C)[C@@H](C)O)C(=O)N1CCC[C@H]1C(=O)N[C@@H](CCC(N)=O)C(=O)N[C@@H](CC(=O)O)C(=O)N[C@@H](CC(C)C)C(=O)N[C@@H](Cc1c[nH]c2ccccc12)C(=O)N[C@@H](CCC(=O)O)C(=O)N[C@@H](Cc1c[nH]c2ccccc12)C(=O)N[C@H](C(=O)N[C@@H](CCCNC(=N)N)C(=O)N[C@@H](CCCNC(=N)N)C(N)=O)C(C)C [SEQ ID NO: 115] (Ac-VHVTIPQDLWEWVRR-NH2)", 8.99],
  ["CC[C@H](C)[C@H](NC(C)=O)C(=O)N[C@@H](Cc1c[nH]cn1)C(=O)N[C@H](C(=O)N[C@H](C(=O)N[C@H](C(=O)N1CCC[C@H]1C(=O)N[C@@H](C)C(=O)N[C@@H](CC(=O)O)C(=O)N[C@@H](CC(C)C)C(=O)N[C@@H](Cc1c[nH]c2ccccc12)C(=O)N[C@@H](CC(=O)O)C(=O)N[C@@H](Cc1c[nH]c2ccccc12)C(=O)N[C@H](C(=O)N[C@@H](CCCNC(=N)N)C(=O)N[C@@H](CCCNC(=N)N)C(N)=O)C(C)C)[C@@H](C)CC)[C@@H](C)O)C(C)C [SEQ ID NO: 14] (Ac-IHVTIPADLWDWVRR-NH2)", 8.99]
]}

We now examine a further compound.
Reported IP (isoelectric point) ( CC[C@H](C)[C@H](NC(=O)[C@H](Cc1c[nH]c2ccccc12)NC(=O)[C@H](CCC(=O)O)NC(=O)[C@H](Cc1ccc(O)cc1)NC(=O)[C@H](CC(C)C)NC(=O)[C@H](CC(=O)O)NC(=O)[C@H](C)NC(=O)[C@@H]1CCCN1C(=O)[C@@H](NC(=O)[C@@H](NC(=O)[C@@H](NC(=O)[C@H](CCSC)NC(=O)[C@@H](NC(C)=O)C(C)C)C(C)C)[C@@H](C)O)[C@@H](C)CC)C(=O)N[C@@H](CC(N)=O)C(=O)N[C@@H](CCCCN)C(N)=O [SEQ ID NO: 16] (Ac-VMVTIPADLYEWINK-NH2) ) = 5.19

###

Target: IL-17RA/IL17RC dimerization induced by IL-17A (Homo sapiens, UniProt Q16552)
Test: IL-17RA/IL17RC dimerization assay in response to IL-17A (PathHunter Cytokine Receptor Assay)
Type: cell-based
Details: IL-17A at EC80; read-out: IC50 in IL-17RA/IL7RC dimerization assay
pIC50: −log10 of the molar value. Residues, ends and D or L forms follow the SMILES beside them.
Below, each entry is listed alongside its reported pIC50.

{"columns": ["MOLECULE", "MEASURED ENDPOINT", "ASSAY VALUE"],
 "data": [
  ["CC[C@H](C)[C@H](NC(C)=O)C(=O)N[C@@H](Cc1c[nH]cn1)C(=O)N[C@@H](CC(C)C)C(=O)N[C@H](C(=O)N[C@H](C(=O)N1CCC[C@H]1C(=O)N[C@@H](C)C(=O)N[C@@H](CC(=O)O)C(=O)N[C@@H](CC(C)C)C(=O)N[C@@H](Cc1c[nH]c2ccccc12)C(=O)N[C@@H](CC(=O)O)C(=O)N[C@@H](Cc1c[nH]c2ccccc12)C(=O)N[C@H](C(=O)N[C@@H](CC(N)=O)C(=O)N[C@@H](CCCCN)C(N)=O)[C@@H](C)CC)[C@@H](C)CC)[C@@H](C)O [SEQ ID NO: 169] (Ac-IHLTIPADLWDWINK-NH2)", "pIC50", "> 5.00"]
]}

Reported pIC50 ( CC(=O)N[C@H](C(=O)N[C@@H](Cc1c[nH]cn1)C(=O)N[C@H](C(=O)N[C@H](C(=O)N[C@@H](Cc1ccccc1)C(=O)N1CCC[C@H]1C(=O)N[C@@H](C)C(=O)N[C@@H](CC(=O)O)C(=O)N[C@@H](CC(C)C)C(=O)N[C@@H](Cc1c[nH]c2ccccc12)C(=O)N[C@@H](CCC(=O)O)C(=O)N[C@@H](Cc1c[nH]c2ccccc12)C(=O)N[C@H](C(=O)N[C@@H](CCCNC(=N)N)C(=O)N[C@@H](CCCNC(=N)N)C(N)=O)C(C)C)[C@@H](C)O)C(C)C)C(C)C [SEQ ID NO: 114] (Ac-VHVTFPADLWEWVRR-NH2) ) = > 6.30

Reported pIC50 ( CC[C@H](C)[C@H](NC(C)=O)C(=O)N[C@@H](Cc1c[nH]cn1)C(=O)N[C@@H](Cc1ccccc1)C(=O)N[C@H](C(=O)N[C@H](C(=O)N1CCC[C@H]1C(=O)N[C@@H](C)C(=O)N[C@@H](CC(=O)O)C(=O)N[C@@H](CC(C)C)C(=O)N[C@@H](Cc1c[nH]c2ccccc12)C(=O)N[C@@H](CC(=O)O)C(=O)N[C@@H](Cc1c[nH]c2ccccc12)C(=O)N[C@H](C(=O)N[C@@H](CC(N)=O)C(=O)N[C@@H](CCCCN)C(N)=O)[C@@H](C)CC)[C@@H](C)CC)[C@@H](C)O [SEQ ID NO: 174] (Ac-IHFTIPADLWDWINK-NH2) ) = > 5.00

Reported pIC50 ( CC(=O)N[C@H](C(=O)N[C@@H](Cc1c[nH]cn1)C(=O)N[C@H](C(=O)N[C@H](C(=O)N[C@H](C(=O)N1CCC[C@H]1C(=O)N[C@@H](CCC(N)=O)C(=O)N[C@@H](CCC(=O)O)C(=O)N[C@@H](CC(C)C)C(=O)N[C@@H](Cc1ccccc1)C(=O)N[C@@H](CCC(=O)O)C(=O)N[C@@H](Cc1c[nH]c2ccccc12)C(=O)N[C@H](C(=O)N[C@@H](CCC(=O)O)C(=O)N[C@@H](CCC(=O)O)C(N)=O)C(C)C)C(C)C)[C@@H](C)O)C(C)C)C(C)C [SEQ ID NO: 228] (Ac-VHVTVPQELFEWVEE-NH2) ) = > 5.00
